Measured values drawn from patent US9517279B2 for this set.

# TARGET_OF_ASSAY: D1 human clone (D1^low) (Homo sapiens, UniProt P21728)
# Construct: expressed in transfected cells
# Sequence (P21728 whole entry): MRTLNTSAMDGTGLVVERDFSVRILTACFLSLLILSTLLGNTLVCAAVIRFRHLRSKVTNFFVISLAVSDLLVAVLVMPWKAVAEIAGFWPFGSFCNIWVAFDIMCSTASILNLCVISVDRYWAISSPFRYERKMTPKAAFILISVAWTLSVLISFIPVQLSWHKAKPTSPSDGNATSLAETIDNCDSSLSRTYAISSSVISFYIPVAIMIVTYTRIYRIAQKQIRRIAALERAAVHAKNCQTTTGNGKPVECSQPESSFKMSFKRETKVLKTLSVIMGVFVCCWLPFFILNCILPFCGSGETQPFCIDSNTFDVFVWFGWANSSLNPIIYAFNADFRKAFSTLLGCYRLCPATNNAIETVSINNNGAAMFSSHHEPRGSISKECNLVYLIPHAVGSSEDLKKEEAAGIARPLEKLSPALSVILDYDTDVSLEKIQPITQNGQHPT
# ASSAY_PROTOCOL: Competitive binding, D1 human clone [3H]SCH23390
READOUT_TYPE: pKi
Note on units: pKi is unitless, being -log10 of a concentration expressed in mol/L.

Returns the measured pKi for the input molecule. Input: CCN1CCc2cc(OCCCF)cc3c2[C@H]1Cc1cccc(O)c1-3 [11c]
5.89

---

Where a name gives a salt, the structure may show the parent alone.
READOUT_TYPE: melting point

So what does the record say about melting point for CCN1CCc2cc(OCCI)cc3c2[C@H]1Cc1ccc(O)c(O)c1-3 (as salt: HCl) [8e, R(−)-2-iodoethoxy-N-ethylnorapomorphine] ?
155 to 163 °C (dec.)

Which melting point is reported for this compound? CCN1CCc2cc(OCCCF)cc3c2[C@H]1Cc1cccc(O)c1-3 (as salt: HCl) [11c]
156 to 158 °C (dec.)

Look up melting point for this compound: CN1CCc2cc(OCCCF)cc3c2[C@H]1Cc1ccc(O)c(O)c1-3 (as salt: HCl)
170 to 175 °C (dec.)

Using the record for CCCN1CCc2cc(OCCF)cc3c2[C@H]1Cc1ccc(O)c(O)c1-3 (as salt: HCl) [8b, R(−)-2-Fluoroethyoxy-NPA] , report its melting point.
203 to 205 °C (dec.)
